System: AChE
Assay type: in vivo
Parameters: concentration or dose not given beside the values
Settings: brain, AlCl3-induced AD rats
property-label: reduction in AChE levels (%)
One number for each entry, in %.

Known results for molecules:
{"smiles-data": "O=C1CN(c2ccc(Cl)cc2)C(=O)c2c(sc3c2CCCCC3)O1", "property-label": "reduction in AChE levels", "observed-result": 47}
{"smiles-data": "O=C1CN(c2ccc(O)cc2)C(=O)c2c(sc3c2CCCCC3)O1", "property-label": "reduction in AChE levels", "observed-result": 61.8}
{"smiles-data": "CCOc1ccc(N2CC(=O)Oc3sc4c(c3C2=O)CCCCC4)cc1", "property-label": "reduction in AChE levels", "observed-result": 71.2}
{"smiles-data": "N#Cc1ccc(N2CC(=O)Oc3sc4c(c3C2=O)CCCCC4)cc1", "property-label": "reduction in AChE levels", "observed-result": 63.8}
{"smiles-data": "CCOC(=O)c1c(OC(=O)CCl)sc2c1CCCCC2", "property-label": "reduction in AChE levels", "observed-result": 34.8}
{"smiles-data": "COc1ccc(N2CC(=O)Oc3sc4c(c3C2=O)CCCCC4)cc1", "property-label": "reduction in AChE levels", "observed-result": 75}
{"smiles-data": "O=C1CN(c2ccccc2)C(=O)c2c(sc3c2CCCCC3)O1", "property-label": "reduction in AChE levels", "observed-result": 70.1}

Read the next record carefully.
Prompt: What value of reduction in AChE levels has been reported for the following molecule? `CCOC(=O)c1c(O)sc2c1CCCCC2`
Completion: 23.6

###

System: BAX
Experiment: BAX gene expression (RT-qPCR)
Format: in vivo, rat
Conditions: gene expression; AlCl3-induced AD rats; mean ± SE, n = 6
Method: The brain tissues of the rats were removed and rigorously washed in isotonic saline 24 h after they were euthanized following the last behavioral test. For histological investigation, four brains per group were preserved for the whole night in 10% neutral buffered formalin. The remaining six brains were split into two sections each. […]
property-label: BAX

Known results for compounds:
{"compound": "CCOc1ccc(N2CC(=O)Oc3sc4c(c3C2=O)CCCCC4)cc1 [Compound 14]", "BAX": "5.49 ± 0.100 ^abc"}
{"compound": "O=C1CN(c2ccccc2)C(=O)c2c(sc3c2CCCCC3)O1 [Compound 11]", "BAX": "6.84 ± 0.090 ^abc"}
{"compound": "CCOC(=O)c1c(O)sc2c1CCCCC2 [Compound 2]", "BAX": "8.13 ± 0.070 ^abc"}
{"compound": "O=C1CN(c2ccc(O)cc2)C(=O)c2c(sc3c2CCCCC3)O1 [Compound 15]", "BAX": "4.47 ± 0.040 ^abc"}

Each of the following entries comes with a recorded value; kindly state BAX for each.
1. N#Cc1ccc(N2CC(=O)Oc3sc4c(c3C2=O)CCCCC4)cc1 [Compound 13]
2. CCOC(=O)c1c(OC(=O)CCl)sc2c1CCCCC2 [Compound 4]

Completion:
["5.80 ± 0.120 ^abc", "7.42 ± 0.030 ^abc"]

Each of the following entries comes with a recorded value; kindly state BAX for each.
1. COc1ccc(N2CC(=O)Oc3sc4c(c3C2=O)CCCCC4)cc1 [Compound 16]
2. O=C1CN(c2ccc(Cl)cc2)C(=O)c2c(sc3c2CCCCC3)O1 [Compound 12]

Completion:
["6.14 ± 0.090 ^abc", "4.85 ± 0.110 ^abc"]
